B1: CPEB3 Ribozyme (parent)
chain: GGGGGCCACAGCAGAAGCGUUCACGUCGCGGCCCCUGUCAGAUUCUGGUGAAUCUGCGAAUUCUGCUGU

# Variants of: B1
# assay_details: self-cleavage, relative activity (ratio to wild type); higher = more cleavage; co-transcriptional
Threshold check on self-cleavage: at or above 0.8 gives condition met, strictly below gives condition not met.

// known answers, use as guide
macromolecule_sequence | class_name
UGGGGCCACAGCAGAAGCGUUCACGUCGGGGCCCCUGUCAGAUUCUGGUGAAUCUGCGAAUUCUGCUGU [G1U C29G] | condition not met
GGGGGCCACAGCAGAAGCGUUCACGUCGCGGCCCCUGUCAGAUUCUGGUGGAUCUGCGAAUUCUGCAGU [A51G U67A] | condition met

Textbook exercise: given the entry GGGGGCCACAGCAGAAGCGUUCACGUCGCGGCCCCUGUCAGAUUCUGGUGCAUCUGCGAAUUCUGCUGC [A51C U69C] , state whether its self-cleavage is greater than or equal to 0.8.
condition met

Textbook exercise: given the entry GGGGGCCACAGCCGGAGCGUUCACGUCGCGGCCCCUGUCAGAUUCUGGUGAAUCUGCGAAUUCUGCUGU [A13C A15G] , state whether its self-cleavage is greater than or equal to 0.8.
condition not met

Textbook exercise: given the entry GGGGGCCACAGUAGAAGCGUUCACGUCGCGGCCCCUGUCAGAUUCUGGUGAAUCUGCGAAUUCUCCUGU [C12U G65C] , state whether its self-cleavage is greater than or equal to 0.8.
condition met

Textbook exercise: given the entry GGGGGCCACAGCAGAAGCUUUCACGUCGCGGCCCCUGUCAGAUUCUGGUGAAUCUGCUAAUUCUGCUGU [G19U G58U] , state whether its self-cleavage is greater than or equal to 0.8.
condition not met

From: the RNAGym collection of RNA variant scans (doi:10.7554/elife.80360)
